tested on: NCI-H522 lung; assay: NCI-60 one-dose screen, 48 h (100 = growth as untreated, 0 = no growth, -100 = all killed); conditions: 10 µM unless noted
This is part of a sample that, as a whole, favours compounds with a hit. Of some 83,000 tested, about 20% had one in any assay. Activity calls are given as the source filed them. The calls were made as follows: active = growth percent below 10; inactive = the rest.
Below is a list of entries, each paired with its recorded growth value.
readout-type: growth

                                    compound  system_under_test  readout_type       assay_value
 0  N#Cc1c(N)c(C(=O)c2ccc3c(c2)OCCO3)n2c1CCCC2      NCI-H522 lung        growth   -33.3% (active)
 1  CN1CCN(Cc2ccc(NC(=O)c3ccc(C#N)c(C#Cc4cnc(N)c5ncccc45)c3)cc2C(F)(F)F)CC1      NCI-H522 lung        growth  98.4% (inactive)
 2  C=CCn1c(C)nc2cc(Nc3nc(N4CCOCC4)nc4nc[nH]c34)ccc21      NCI-H522 lung        growth  88.2% (inactive)
 3  CCN(CC)CCCC(C)Nc1cnc(C(=O)Nc2cccc3ccc(OC)nc23)cn1 (stereo not drawn)      NCI-H522 lung        growth    5.07% (active)
 4  CCOc1c(C#N)c2c(N)ncnc2n1C1OC(CO)C(O)C1O (stereo not drawn)      NCI-H522 lung        growth   -22.4% (active)
 5  Cc1[nH]nc2ccc3nc(-c4ccc5[nH]ncc5c4)c4c(c3c12)CCCC4      NCI-H522 lung        growth    0.13% (active)
 6  C=CC[C@]1(O)CC[C@H]2[C@@H]3CCc4cc(O)ccc4[C@H]3CC[C@@]21C      NCI-H522 lung        growth  63.9% (inactive)
 7           c1ccc(C(CC2=NCCCN2)c2ccccc2)cc1      NCI-H522 lung        growth  90.9% (inactive)
 8  CC[C@H](Nc1nc(C)nc(N)c1C#N)c1nc2cccc(NCc3ccc(C(=O)NO)cc3)c2c(=O)n1-c1ccccc1      NCI-H522 lung        growth   -36.4% (active)
 9  Cc1ccc(-c2nc3ccccc3c(=O)n2/N=C/c2cccc3ccccc23)cc1      NCI-H522 lung        growth  53.4% (inactive)
10  CCCCCCCCCCCCCCCCCC1=NC(C)(C)CN1C(C)(C)CO      NCI-H522 lung        growth   -84.8% (active)
11  NS(=O)(=O)c1ccc(N2N=C(c3cccs3)CC2c2ccccc2O)cc1 (stereo not drawn)      NCI-H522 lung        growth   -23.9% (active)
12  CCOC(=O)C1=C(C)NC(SCc2nnc(-c3ccc(Cl)cc3)o2)=NC1c1ccc(Cl)cc1 (stereo not drawn)      NCI-H522 lung        growth  68.9% (inactive)
13            C/C(=N\NC(=S)N1CCCCC1)c1ccccn1      NCI-H522 lung        growth  11.5% (inactive)
14                CCCNC(=S)N/N=C(\C)c1ccccn1      NCI-H522 lung        growth  56.4% (inactive)
15  COc1ccc(-c2[nH]nc(N)c2-c2cc(OC)c(OC)c(OC)c2)cc1      NCI-H522 lung        growth     -32% (active)
16  COc1ccc(/C=C/C(=O)c2ccc(NC(=O)CSc3nnc(-c4ccc(Cl)cc4)n3-c3ccccc3)cc2)cc1      NCI-H522 lung        growth  84.6% (inactive)
17  Cc1ccc(NC(=O)c2[nH]c(SCCN(C)C)nc2-c2ccc(F)cc2)cc1C#Cc1cnc2cccnn12      NCI-H522 lung        growth    1.49% (active)
18             NC(=O)c1noc(C(=O)c2ccccc2)c1N      NCI-H522 lung        growth  80.4% (inactive)
19  COc1cc(C2=NOC(c3cc(OC)c(OC)c(OC)c3)C2)ccc1OCCCCOc1cc2c(cc1OC)C(=O)N1CCC[C@H]1C=N2 (stereo partly drawn)      NCI-H522 lung        growth   -41.7% (active)
20  Cc1cc(C)cc(Nc2cc(C)nc3nc(C(F)(F)F)nn23)c1      NCI-H522 lung        growth    6.54% (active)
21  COc1ccc(C(=O)c2cc(C)c(OC)c(C)c2)cc1OC(=O)CCl      NCI-H522 lung        growth   -40.2% (active)
22  CC(=O)N1N=C(c2ccc(C)cc2)CC1c1cn(-c2ccccc2)nc1-c1cccc(Nc2ccnc3cc(Cl)ccc23)c1 (stereo not drawn)      NCI-H522 lung        growth    36% (inactive)
